System: 435261-313-R-J1-PDC complex spheroid viability;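 also: spheroids exposed to the agents for seven days before readout; percent of vehicle control viability with DMSO wells as 100%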
TEST: Anticancer human tumor 435261-313-R-J1-PDC patient-derived colon adenocarcinoma cell line growth inhibition [GQUAD]
DETAILS: second compound 0.1 µM; first compound 10 µM; active compounds read low
In this section, each of the compounds is paired with its reported viability, T/C.
The reply should be a number in %, with the unit left off.

Lab note: need viability, T/C for C=CC(=O)N1CCN(c2nc(=O)n(-c3c(C)ccnc3C(C)C)c3nc(-c4c(O)cccc4F)c(F)cc23)C(C)C1 (stereo not given) + Cc1cnc(CNC(=O)c2c(=O)c3ccc(N4CCCN(C)CC4)nc3n3c2sc2ccccc23)cn1 on 435261-313-R-J1-PDC complex spheroid viability, anyone have it?
65.7

Moving on to C#Cc1c(F)ccc2cc(O)cc(-c3ncc4c(N5CC6CCC(C5)N6)nc(OCC56CCCN5CC(F)C6)nc4c3F)c12 (stereo not given) + Cc1cnc(CNC(=O)c2c(=O)c3ccc(N4CCCN(C)CC4)nc3n3c2sc2ccccc23)cn1
29.6

// query: CC1COCCN1c1cc(C2(S(C)(=N)=O)CC2)nc(-c2ccnc3[nH]ccc23)n1 (stereo not given) + Cc1cnc(CNC(=O)c2c(=O)c3ccc(N4CCCN(C)CC4)nc3n3c2sc2ccccc23)cn1
38.8

What about C=CC(=O)N1CCN(c2nc(=O)n(-c3c(C)ccnc3C(C)C)c3nc(-c4c(O)cccc4F)c(F)cc23)C(C)C1 (stereo not given) + CN(C)c1ccc(Nc2c3ccc(NC(=O)CCN4CCCC4)cc3nc3cc(NC(=O)CCN4CCCC4)ccc23)cc1 ?
173

Do the same for CC1COCCN1c1cc(C2(S(C)(=N)=O)CC2)nc(-c2ccnc3[nH]ccc23)n1 (stereo not given) + Cc1[nH]c2ccc(F)cc2c1-c1nc2c3cccnc3c3ncccc3c2[nH]1 please
55.4

Would you mind doing CC(C)(O)C1CCC(Nc2ccc3ncc(-c4cccc(C(F)(F)F)c4)n3n2)CC1 (stereo not given) + Cc1[nH]c2ccc(F)cc2c1-c1nc2c3cccnc3c3ncccc3c2[nH]1 as well?
8.09

Same read-out for CC(=O)O[C@H]1C(=O)[C@@]2(C)[C@H]([C@H](OC(=O)c3ccccc3)[C@]3(O)C[C@H](OC(=O)[C@H](O)[C@@H](NC(=O)c4ccccc4)c4ccccc4)C(C)=C1C3(C)C)[C@]1(OC(C)=O)CO[C@@H]1C[C@@H]2O + Cc1cnc(CNC(=O)c2c(=O)c3ccc(N4CCCN(C)CC4)nc3n3c2sc2ccccc23)cn1 ?
53.6

Now consider CC(C)n1c(=O)n(C)c2cnc3cc(F)c(-c4ccc(OCCCN5CCCCC5)nc4)cc3c21 + Cc1cnc(CNC(=O)c2c(=O)c3ccc(N4CCCN(C)CC4)nc3n3c2sc2ccccc23)cn1 and answer again.
28.6

Similarly, CC1COCCN1c1cc(C2(S(C)(=N)=O)CC2)nc(-c2ccnc3[nH]ccc23)n1 (stereo not given) + CN(C)c1ccc(Nc2c3ccc(NC(=O)CCN4CCCC4)cc3nc3cc(NC(=O)CCN4CCCC4)ccc23)cc1 ?
51.8

What do we get for C#Cc1c(F)ccc2cc(O)cc(-c3ncc4c(N5CC6CCC(C5)N6)nc(OCC56CCCN5CC(F)C6)nc4c3F)c12 (stereo not given) + Cc1[nH]c2ccc(F)cc2c1-c1nc2c3cccnc3c3ncccc3c2[nH]1 ?
57
